Reference for the values: ChEMBL document CHEMBL1201862

# System: OVCAR-4
# procedure_details: NCI tumour cell line growth inhibition, 48 h
Calls of active or inactive are those of the source. Cut-off read from the data, not from the text of the source: active = GI50 up to about 1.1 µM and inactive = higher.

compound: Cn1ncc2c(=O)[nH]c(-c3ccccc3)nc21
target_or_system: OVCAR-4
GI50: > 100 µM (inactive)
--
compound: CC1CCC(=O)NCCCCC(=O)N1 (stereo unspecified)
target_or_system: OVCAR-4
GI50: > 100 µM (inactive)
--
compound: CN1C(=O)c2ccccc2NC(=O)C12O[C@@H]2c1cccc(O)c1 (stereo partly specified)
target_or_system: OVCAR-4
GI50: > 100 µM (inactive)
--
compound: CC1OC(OC2C(O)COC(OC3C(C)OC(OC4C(OC(=O)[C@]56CCC(C)(C)C[C@@H]5C5=CCC7[C@@]8(C)C[C@H](O)[C@H](OC9OC(CO)C(O)C(O)C9O)[C@@](C)(CO)[C@@H]8CC[C@@]7(C)[C@]5(C)CC6)OCC(O)C4O)C(O)C3OC3OCC(O)(CO)C3O)C2O)C(O)C(O)C1O (stereo partly specified)
target_or_system: OVCAR-4
GI50: 15.7 µM (inactive)
--
compound: C[n+]1c2ccccc2c(C(=O)Nc2ccc(S(=O)(=O)Nc3ccnn3-c3ccccc3)cc2)c2ccccc21
target_or_system: OVCAR-4
GI50: > 100 µM (inactive)
--
compound: O=c1c2cc(-c3ccccc3)cnc2sn1-c1ccc(Oc2ccccc2)cc1
target_or_system: OVCAR-4
GI50: 19.9 µM (inactive)
--
compound: Cc1cc(C)nc(NC(=S)Nc2ccc([N+](=O)[O-])cc2)c1
target_or_system: OVCAR-4
GI50: > 100 µM (inactive)
--
compound: O=S1(=O)OCc2ccccc21
target_or_system: OVCAR-4
GI50: 51.1 µM (inactive)
--
compound: O=C(O)CCN1CCN(CCC(=O)O)CCN(CCC(=O)O)CC1
target_or_system: OVCAR-4
GI50: > 100 µM (inactive)
--
compound: O=C(O)C(Cc1c[nH]c2ccccc12)N1C(=O)c2ccccc2C1=O (stereo unspecified)
target_or_system: OVCAR-4
GI50: > 100 µM (inactive)
--
compound: COc1ccc(-n2c(=O)c3nc(S)[nH]c3n(-c3ccc(OC)cc3)c2=S)cc1
target_or_system: OVCAR-4
GI50: > 100 µM (inactive)
--
compound: CCC(=O)N(c1ccccc1)C(C)CN1CCC(O)(c2cccc(C(F)(F)F)c2)CC1 (stereo unspecified)
target_or_system: OVCAR-4
GI50: 33.3 µM (inactive)
--
compound: N#CC1(C#N)C=CC(=C2OCC3CCCN23)C=C1 (stereo unspecified)
target_or_system: OVCAR-4
GI50: > 100 µM (inactive)
--
compound: O=C(O)CSc1cc(-c2ccccc2)nc2ccccc12
target_or_system: OVCAR-4
GI50: 64 µM (inactive)
--
compound: COc1cc2cc(C(=O)N3CC(CCl)c4c3cc(N)c3ccccc43)[nH]c2c(OC)c1OC (stereo unspecified)
target_or_system: OVCAR-4
GI50: < 0.01 µM (active)
--
compound: COc1ccc(/C=C2\CC3C4CC=C5C[C@@H](N6CCCC6)CC[C@]5(C)C4CC[C@]3(C)[C@H]2O)cc1OC (stereo partly specified)
target_or_system: OVCAR-4
GI50: 7.67 µM (inactive)
--
compound: CCSc1nc(COC(=O)NC)c(COC(=O)NC)n1C
target_or_system: OVCAR-4
GI50: > 75.7 µM (inactive)
--
compound: C(=NCCN1CCOCC1)=NC1CCCCC1
target_or_system: OVCAR-4
GI50: > 100 µM (inactive)
--
compound: FC(F)(F)c1cccc2ns[s+]c12
target_or_system: OVCAR-4
GI50: > 100 µM (inactive)
--
compound: Cc1coc2c1[C@@H](O)[C@@]1(C)[C@H](CCC[C@@H]1C)C2
target_or_system: OVCAR-4
GI50: 58.7 µM (inactive)
--
compound: CCCCNC1=C(C(=O)OCC)/C(=N/NC(=O)c2ccccc2O)CO1
target_or_system: OVCAR-4
GI50: 19.4 µM (inactive)
